Target Desc: T1, HpMutS2 (Helicobacter pylori 26695, UniProt O25338 1-762)
T1 sequence: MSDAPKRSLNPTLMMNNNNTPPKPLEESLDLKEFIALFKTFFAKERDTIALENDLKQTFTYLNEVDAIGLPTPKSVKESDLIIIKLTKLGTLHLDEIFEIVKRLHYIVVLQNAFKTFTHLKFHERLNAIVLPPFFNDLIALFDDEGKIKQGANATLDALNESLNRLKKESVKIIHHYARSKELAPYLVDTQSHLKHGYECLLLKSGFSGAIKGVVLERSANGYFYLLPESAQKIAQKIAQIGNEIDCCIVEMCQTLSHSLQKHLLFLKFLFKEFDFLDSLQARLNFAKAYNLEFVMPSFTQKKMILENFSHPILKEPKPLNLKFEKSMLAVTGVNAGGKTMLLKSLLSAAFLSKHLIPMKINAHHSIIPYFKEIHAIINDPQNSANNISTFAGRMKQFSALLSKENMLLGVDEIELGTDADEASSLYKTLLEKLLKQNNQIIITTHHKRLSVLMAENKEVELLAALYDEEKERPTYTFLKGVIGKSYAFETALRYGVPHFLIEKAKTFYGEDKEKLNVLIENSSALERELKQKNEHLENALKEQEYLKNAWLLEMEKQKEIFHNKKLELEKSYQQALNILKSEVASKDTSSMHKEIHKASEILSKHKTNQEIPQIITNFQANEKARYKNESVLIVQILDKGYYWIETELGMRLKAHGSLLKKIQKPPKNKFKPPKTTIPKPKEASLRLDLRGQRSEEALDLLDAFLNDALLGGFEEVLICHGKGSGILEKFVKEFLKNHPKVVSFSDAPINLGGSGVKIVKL
Test Method Notes: EMSA; 1 mM ADP; EMSA: 0.16 nM DNA, buffer A (50 mM Tris pH 8.0, 50 mM NaCl, 1 mM DTT per Fig. S3 legend) with 0.1 ug/ul BSA, NaCl 110 mM, no divalent metal stated, 30 min on ice, 8% native PAGE at 4 C; nucleotides 1 mM; Hill-slope fit
Condition Summary: protein: recombinant; tags: C-terminal His6; chain copies: 4; label: 5'-32P
Observation Type: Kd (nM)
Please respond with the number in nM and leave the unit unwritten.

Enquiry: Kd lookup needed for ssDNA 63-mer (ODN4) (ssDNA) DNA: ATCGATAGTCGGATCCTCCAGACAGCTCCATGTAGCAAGGCACTGGTAGAATTCGGCAGCGTC , thanks.
Return: 17.3
